pIC50 values for Serine/threonine-protein kinase ATR (Homo sapiens) compiled from several publications are listed below.
FYI, pIC50 means -log10 of a concentration in mol per litre.

Take a look at these entries with their results.
>>> measured_result("Cc1nnn(C)c1-c1cc(-c2cc(CO)cc3[nH]ccc23)nc(N2CCOC[C@H]2C)c1")
7.11
>>> measured_result("Cc1cnn(C)c1-c1cc(N2CCOC[C@H]2C)nc(-c2cc(C(=O)O)cc3[nH]ccc23)n1")
7.08
>>> measured_result("Cc1nn(C)c(C)c1-c1nc(-c2ccnc3[nH]ccc23)cc(N2CCOC[C@H]2C)n1")
6.59

Sample "C[C@@H]1COCCN1c1cc(C(C)(C)S(C)(=O)=O)cc(Nc2ccn[nH]2)n1" , system: Serine/threonine-protein kinase ATR (Homo sapiens). Its pIC50 is 7.66

Sample "CNc1nc2cc(F)ccc2n1-c1nc(-c2c(C)nn(CC3(C)COC3)c2C(F)(F)F)cc(N2CCOC[C@H]2C)n1" , system: Serine/threonine-protein kinase ATR (Homo sapiens). Its pIC50 is 7.49

====

pIC50 values for Serine/threonine-protein kinase ATR (Homo sapiens, UniProt Q13535) compiled from several publications are listed below.
FYI, pIC50 means -log10 of a concentration in mol per litre.

Take a look at these entries with their results.
>>> measured_result("CCn1nccc1-c1cc(-c2ccnc3[nH]ccc23)nc(N2CCOC[C@H]2C)n1")
6.90
>>> measured_result("C[C@@H]1COCCN1c1nc(-c2cccc3[nH]ccc23)cc(-c2ccnn2C)n1")
7.04
>>> measured_result("Cc1cnn(C)c1-c1cc(-c2cc(F)cc3[nH]ccc23)nc(N2CCOC[C@H]2C)n1")
7.10

Sample "C[C@@H]1COCCN1c1cc(C2(C#N)CCCCC2)cc(Nc2ccn[nH]2)n1" , system: Serine/threonine-protein kinase ATR (Homo sapiens, UniProt Q13535). Its pIC50 is 7.91

Sample "Cc1ccc(S(=O)(=O)N(C)CCN(C)C)cc1-c1cc(N2CCOC[C@H]2C)nc(-c2ccnc3[nH]ccc23)n1" , system: Serine/threonine-protein kinase ATR (Homo sapiens, UniProt Q13535). Its pIC50 is 6.55

====

pIC50 values for Serine/threonine-protein kinase ATR (Homo sapiens) compiled from several publications are listed below.
FYI, pIC50 means -log10 of a concentration in mol per litre.

Take a look at these entries with their results.
>>> measured_result("Cc1cc(Nc2cc(C3(C#N)CC3)cc(N3CCOC[C@H]3C)n2)[nH]n1")
7.48
>>> measured_result("COc1cc(-c2nc(-c3c(C)nn(C4CCNCC4)c3C(F)(F)F)cc(N3CCOC[C@H]3C)n2)c2cc[nH]c2n1")
7.51
>>> measured_result("Cc1noc(C)c1-c1cc(-c2ccnc3[nH]ccc23)nc(N2CCOC[C@H]2C)c1")
7.46

# evaluate next
The reported value for "CCn1nccc1-c1cc(N2CCOC[C@H]2C)nc(-c2cc(F)cc3[nH]ccc23)n1" in terms of pIC50 is 7.19

====

IC50 values for Serine/threonine-protein kinase ATR (Homo sapiens, UniProt Q13535) compiled from several publications are listed below.
Respond with the bare value in nM.

Take a look at these entries with their results.
>>> measured_result("CNc1nc2cc(F)ccc2n1-c1nc(-c2c(C(F)(F)F)nn(C3CCNCC3)c2C)cc(N2CCOC[C@H]2C)n1")
82
>>> measured_result("COCCn1nc(C)c(-c2cc(N3CCOC[C@H]3C)nc(-c3ccnc4[nH]ccc34)n2)c1C")
571
>>> measured_result("COc1cc(-c2nc(N3CCOC[C@H]3C)c3ccn(S(C)(=O)=O)c3n2)c2cc[nH]c2c1")
5.3
>>> measured_result("CC(C)S(=O)(=O)n1ccc2c(N3CCOC[C@H]3C)cc(-c3ccnc4[nH]ccc34)nc21")
35
>>> measured_result("CSc1nc2cc(F)ccc2n1-c1nc(-c2c(C)nn(C3CCNCC3)c2C(F)(F)F)cc(N2CCOC[C@H]2C)n1")
2700

# evaluate next
The reported value for "Cc1cnn(C)c1-c1cc(Nc2ccn[nH]2)nc(N2CCOC[C@H]2C)c1" in terms of IC50 is 16.3
